Data provenance is paper PMC4552634.

Tested on: P. falciparum stage V gametocytes
Set-up: BacTiter-Glo ATP luminescence viability of purified stage V gametocytes in 384-well plates, per cent inhibition versus DMSO
MEASUREMENT_SETUP: 48 h, 5 µM; inhibitor
Screen size: about 13,000 compounds; about 3,200 (25%) showed an effect of 50% or more. The list shows a part of the results.
Kindly supply the reported % Inhibition values for the records listed here.
The answer is to be given in %; state only the numeric part.

Requested read-out: % Inhibition. Entry: Cc1cccc2[nH]c(-c3ccc(-c4ccc(NC(=O)Nc5ccsc5)cc4)cc3)nc12 [TCMDC-133215] -35.23

Record: O=C(Nc1ccc(Cl)c(C(F)(F)F)c1)NC1CCN(CCCCCNC(=O)C2CC2c2ccc(Cl)c(Cl)c2)CC1 (stereo not shown) [TCMDC-136260] 59.16

Record: Cc1nc(C)c(CC(=O)Nc2cccc(-c3cccc(-c4nc5c(C)cccc5[nH]4)c3)c2)s1 [TCMDC-136997] 6.613

Record: Cc1cccc2[nH]c(-c3cccc(-c4ccc(NC(=O)CS(C)(=O)=O)cc4)c3)nc12 [TCMDC-136851] -1.399

Record: O=C(Nc1ccc(C(F)(F)F)cc1)N[C@H]1CCN(CCCCCNC(=O)C2CC2c2ccc(Cl)c(Cl)c2)C1 (stereo partly shown) [TCMDC-136272] 93.26

Record: O=C(Nc1ccc(Cl)c(Cl)c1)N[C@H]1CCN(CCCCCNC(=O)C2CC2c2ccc(Cl)c(Cl)c2)C1 (stereo partly shown) [TCMDC-136266] -8.426

Record: Cc1cccc2[nH]c(-c3cccc(-c4ccc(NC(=O)CN5CCN(C)CC5)cc4)c3)nc12 [TCMDC-136983] 81.12
